# Measured target: jack bean urease (Canavalia ensiformis, UniProt P07374)
# Sequence (P07374 whole entry, looked up): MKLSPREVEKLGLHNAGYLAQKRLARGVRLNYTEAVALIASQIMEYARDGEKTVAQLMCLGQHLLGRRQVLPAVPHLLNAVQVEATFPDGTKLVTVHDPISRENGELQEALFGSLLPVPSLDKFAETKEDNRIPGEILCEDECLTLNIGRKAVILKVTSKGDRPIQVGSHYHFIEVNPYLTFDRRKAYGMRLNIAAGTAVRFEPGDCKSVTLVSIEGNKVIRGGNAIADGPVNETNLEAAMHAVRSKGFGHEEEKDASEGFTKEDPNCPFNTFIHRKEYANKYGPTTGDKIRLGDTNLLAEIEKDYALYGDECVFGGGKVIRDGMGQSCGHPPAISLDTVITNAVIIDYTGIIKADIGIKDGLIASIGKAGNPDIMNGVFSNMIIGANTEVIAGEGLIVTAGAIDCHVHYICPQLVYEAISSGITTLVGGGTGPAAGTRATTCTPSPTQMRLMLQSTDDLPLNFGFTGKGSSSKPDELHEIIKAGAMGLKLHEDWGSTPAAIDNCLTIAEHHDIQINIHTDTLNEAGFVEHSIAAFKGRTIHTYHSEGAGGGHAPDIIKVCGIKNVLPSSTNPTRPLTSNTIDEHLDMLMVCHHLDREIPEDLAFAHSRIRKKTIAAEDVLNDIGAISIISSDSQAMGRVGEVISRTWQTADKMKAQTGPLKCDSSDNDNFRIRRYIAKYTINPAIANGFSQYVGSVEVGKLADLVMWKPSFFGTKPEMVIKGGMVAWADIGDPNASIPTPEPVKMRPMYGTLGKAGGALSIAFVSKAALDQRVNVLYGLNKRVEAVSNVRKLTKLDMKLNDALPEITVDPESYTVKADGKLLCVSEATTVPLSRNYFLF
# Assay: Antiurease assay
# Assay type: biochemical
# Condition set: read-out: IC50 (μM); mean ± SEM; jack bean urease, mean ± SEM
Observation type: IC50 (µM)
One number for each entry, in µM.

IC50 for NC(N)=S [thiourea, reference compound] is 22.6

----------
For each of the compounds below, state its pIC50.
# Measured target: jack bean urease (Canavalia ensiformis, UniProt P07374)
# Assay: Antiurease assay
# Type: biochemical
Answers are plain numbers, as −log10 of the molar value.

Some compounds with known pIC50 results, for comparison:
{"columns": ["Compound", "pIC50"],
 "data": [
  ["N=C(N)NS(=O)(=O)c1ccc(NC(=O)Cc2ccccc2Nc2c(Cl)cccc2Cl)cc1 [conjugate 11]", 5.36],
  ["Cc1cc(NS(=O)(=O)c2ccc(NC(=O)Cc3ccccc3Nc3c(Cl)cccc3Cl)cc2)no1 [conjugate 9]", 4.48]
]}

// switching to the query compound
Input Cc1cccc(Nc2ccccc2C(=O)Nc2ccc(S(N)(=O)=O)cc2)c1C [conjugate 12] . Output pIC50: 4.73

----------
# Measured target: jack bean urease (Canavalia ensiformis)
# Assay: Enzyme kinetic studies
# Type: biochemical
# Condition set: at an inhibitor concentration of 20 μM
Observation type: Vmax (app) (µM/min)
Give bare numbers, in µM/min.

{"columns": ["Molecule", "Measured target", "Value reported"],
 "data": [
  ["NC(N)=S [thiourea, reference compound]", "jack bean urease (Canavalia ensiformis)", 18.61],
  ["Cc1cc(NS(=O)(=O)c2ccc(NC(=O)c3ccccc3Nc3cccc(C)c3C)cc2)no1 [conjugate 17]", "jack bean urease (Canavalia ensiformis)", 8.54],
  ["Cc1cccc(Nc2ccccc2C(=O)Nc2ccc(S(=O)(=O)Nc3ncccn3)cc2)c1C [conjugate 15]", "jack bean urease (Canavalia ensiformis)", 6.36],
  ["Cc1cccc(Nc2ccccc2C(=O)Nc2ccc(S(=O)(=O)Nc3nccs3)cc2)c1C [conjugate 14]", "jack bean urease (Canavalia ensiformis)", 2.28],
  ["O=C(Cc1ccccc1Nc1c(Cl)cccc1Cl)Nc1ccc(S(=O)(=O)Nc2nccs2)cc1 [conjugate 6]", "jack bean urease (Canavalia ensiformis)", 0.755]
]}

Would you be so kind as to report Vmax (app) for each listed record?
1. Cc1ccnc(NS(=O)(=O)c2ccc(NC(=O)Cc3ccccc3Nc3c(Cl)cccc3Cl)cc2)n1 [conjugate 8]
2. CC(=O)NS(=O)(=O)c1ccc(NC(=O)Cc2ccccc2Nc2c(Cl)cccc2Cl)cc1 [conjugate 10]
3. Cc1cccc(Nc2ccccc2C(=O)Nc2ccc(S(N)(=O)=O)cc2)c1C [conjugate 12]
4. Cc1cccc(Nc2ccccc2C(=O)Nc2ccc(S(=O)(=O)Nc3onc(C)c3C)cc2)c1C [conjugate 13]
5. N=C(N)NS(=O)(=O)c1ccc(NC(=O)Cc2ccccc2Nc2c(Cl)cccc2Cl)cc1 [conjugate 11]

[2.27, 3.46, 8.62, 3.03, 1.11]

----------
# Measured target: jack bean urease (Canavalia ensiformis, UniProt P07374)
# Assay: Antiurease assay
# Assay type: biochemical
# Condition set: jack bean urease; inhibitor concentration not given
Observation type: % inhibition (urease) (%)
Answers are plain numbers, in %.

Solved cases (3 shown):
{"columns": ["Compound", "Unit abbrev", "% inhibition (urease)"],
 "data": [
  ["NC(N)=S [thiourea, reference compound]", "%", 92.3],
  ["O=C(Cc1ccccc1Nc1c(Cl)cccc1Cl)Nc1ccc(S(=O)(=O)Nc2ncccn2)cc1 [conjugate 7]", "%", 83.6],
  ["Cc1ccnc(NS(=O)(=O)c2ccc(NC(=O)c3ccccc3Nc3cccc(C)c3C)cc2)n1 [conjugate 16]", "%", 68.3]
]}

# per-item lookup of % inhibition (urease); items listed below
1. N=C(N)NS(=O)(=O)c1ccc(NC(=O)Cc2ccccc2Nc2c(Cl)cccc2Cl)cc1 [conjugate 11]
2. O=C(Cc1ccccc1Nc1c(Cl)cccc1Cl)Nc1ccc(S(=O)(=O)Nc2nccs2)cc1 [conjugate 6]
3. Cc1cc(NS(=O)(=O)c2ccc(NC(=O)Cc3ccccc3Nc3c(Cl)cccc3Cl)cc2)no1 [conjugate 9]
4. Cc1cccc(Nc2ccccc2C(=O)Nc2ccc(S(N)(=O)=O)cc2)c1C [conjugate 12]
5. Cc1cccc(Nc2ccccc2C(=O)Nc2ccc(S(=O)(=O)Nc3onc(C)c3C)cc2)c1C [conjugate 13]
6. Cc1noc(NS(=O)(=O)c2ccc(NC(=O)Cc3ccccc3Nc3c(Cl)cccc3Cl)cc2)c1C [conjugate 5]
7. Cc1cccc(Nc2ccccc2C(=O)Nc2ccc(S(=O)(=O)NC(=N)N)cc2)c1C [conjugate 19]
8. Cc1ccnc(NS(=O)(=O)c2ccc(NC(=O)Cc3ccccc3Nc3c(Cl)cccc3Cl)cc2)n1 [conjugate 8]

78.7
71.3
77.3
91.6
94.1
73.4
79.2
85.9

List reported % inhibition (urease) for each of these compounds:
1. CC(=O)NS(=O)(=O)c1ccc(NC(=O)c2ccccc2Nc2cccc(C)c2C)cc1 [conjugate 18]
2. Cc1cccc(Nc2ccccc2C(=O)Nc2ccc(S(=O)(=O)Nc3ncccn3)cc2)c1C [conjugate 15]
3. Cc1cccc(Nc2ccccc2C(=O)Nc2ccc(S(=O)(=O)Nc3nccs3)cc2)c1C [conjugate 14]
4. CC(=O)NS(=O)(=O)c1ccc(NC(=O)Cc2ccccc2Nc2c(Cl)cccc2Cl)cc1 [conjugate 10]

64.1
84.9
82.9
84.5
